Assay: Solubility in MQ
Assay type: physicochemical
Settings: MQ (water)
Below, each entry is listed with its recorded solubility.

| Molecular String | Property Measured | Data Value |
| --- | --- | --- |
| CO[C@H]1C[C@@H]2CC[C@@H](C)[C@@](O)(O2)C(=O)C(=O)N2CCCC[C@H]2C(=O)O[C@H]([C@H](C)C[C@@H]2CC[C@@H](O)[C@H](OC)C2)CC(=O)[C@H](C)/C=C(\C)[C@@H](O)[C@@H](OC)C(=O)[C@H](C)C[C@H](C)/C=C/C=C/C=C/1C | solubility | 5 to 20 µg/mL |

Now, please, on to the next molecule.
Request: What value of solubility has been recorded for this entry: CO[C@H]1C[C@@H]2CC[C@@H](C)[C@@](O)(O2)C(=O)C(=O)N2CCCC[C@H]2C(=O)O[C@H]([C@H](C)C[C@@H]2CC[C@@H](OCCO)[C@H](OC)C2)CC(=O)[C@H](C)/C=C(\C)[C@@H](O)[C@@H](OC)C(=O)[C@H](C)C[C@H](C)/C=C/C=C/C=C/1C
Result: < 100 µg/mL
